# self-cleavage annotations
B1: LINE1-full (parent)
chain: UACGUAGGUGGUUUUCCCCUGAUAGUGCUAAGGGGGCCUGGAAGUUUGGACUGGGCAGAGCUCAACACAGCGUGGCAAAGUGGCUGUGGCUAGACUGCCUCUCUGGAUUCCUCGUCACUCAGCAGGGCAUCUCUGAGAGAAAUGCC

- Variants of: B1
- PROTOCOL_NOTES: self-cleavage, relative activity (ratio to wild type); higher = more cleavage; in vitro, sequencing; the parent is a self-cleaving ribozyme
Output spec: single numeric token, no unit.

# VARIANT_CODE, READOUT_VALUE
measured = [
    ("U100C A141U", 1.08),
    ("U5A C61A", 0.03),
    ("G35A U119C", 1.3),
]

Ask: Query (variant): A69U U100C ; field requested: self-cleavage
Result: 0.08

Ask: Query (variant): U109G A124G ; field requested: self-cleavage
Result: 1.04

These measurements were taken from the RNAGym collection of RNA variant scans (doi:10.7554/elife.90254).
